Measured values drawn from PubChem BioAssay AID1963421 for this set.

Test system: 519858-162-T-J1-PDC complex spheroid growth, % test/control
experiment_notes: Anticancer human tumor 519858-162-T-J1-PDC patient-derived colon adenocarcinoma cell line growth inhibition [Asc]
condition_details: second compound 0.0949 µM; first compound 0.0316 µM; stronger effect = lower value
endpoint_label: viability, T/C

Quick one: give me viability, T/C for each item below, same order please.
1. CCN1CCN(Cc2ccc(Nc3ncc(F)c(-c4cc(F)c5nc(C)n(C(C)C)c5c4)n3)nc2)CC1 + CCN1C(C(=O)NC23CCC(C(=O)O)(CC2)CC3)C(c2cccc(Cl)c2F)C2(C(=O)Nc3cc(Cl)ccc32)C12CCCCC2
2. Cn1ncnc1[C@H]1c2n[nH]c(=O)c3cc(F)cc(c23)N[C@@H]1c1ccc(F)cc1 + CCN1C(C(=O)NC23CCC(C(=O)O)(CC2)CC3)C(c2cccc(Cl)c2F)C2(C(=O)Nc3cc(Cl)ccc32)C12CCCCC2
3. COc1c(OCCCN2CCOCC2)ccc2c3n(c(=NC(=O)c4cnc(N)nc4)nc12)CCN3 + CCN1C(C(=O)NC23CCC(C(=O)O)(CC2)CC3)C(c2cccc(Cl)c2F)C2(C(=O)Nc3cc(Cl)ccc32)C12CCCCC2
4. C=C(F)C(=O)N1CCN(c2nc(OCC3CCCN3C)nc3c2CCN(c2cccc4cccc(Cl)c24)C3)CC1CC#N (stereo unspecified) + CCN1C(C(=O)NC23CCC(C(=O)O)(CC2)CC3)C(c2cccc(Cl)c2F)C2(C(=O)Nc3cc(Cl)ccc32)C12CCCCC2
5. O=C(c1ccc(F)c(F)c1Nc1ccc(I)cc1F)N1CC(O)([C@@H]2CCCCN2)C1 + CCN1C(C(=O)NC23CCC(C(=O)O)(CC2)CC3)C(c2cccc(Cl)c2F)C2(C(=O)Nc3cc(Cl)ccc32)C12CCCCC2
6. C#Cc1c(F)ccc2cc(O)cc(-c3ncc4c(N5CC6CCC(C5)N6)nc(OCC56CCCN5CC(F)C6)nc4c3F)c12 (stereo unspecified) + CCN1C(C(=O)NC23CCC(C(=O)O)(CC2)CC3)C(c2cccc(Cl)c2F)C2(C(=O)Nc3cc(Cl)ccc32)C12CCCCC2

86.2%
90.6%
98.1%
126%
64.8%
89.6%

###

System: 519858-162-T-J1-PDC complex spheroid growth, % test/control
experiment_notes: Anticancer human tumor 519858-162-T-J1-PDC cell line growth inhibition [Asc];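 further: seven day drug exposure begun three days after spheroid seeding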;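 on viability, T/C: 100% = DMSO vehicle wells and lower values mean less viable spheroid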
condition_details: second compound 0.0316 µM; first compound 0.1 µM; stronger effect = lower value
endpoint_label: viability, T/C (%)
Give bare numbers, in %.

- compound: "NC1CCC(NC2CC2c2ccccc2)CC1 (configuration not stated) + CNC(C)C(=O)NC1CN(S(=O)(=O)c2cccc(S(=O)(=O)N3CCC4CCC(C(=O)NC(c5ccccc5)c5ccccc5)N4C(=O)C(NC(=O)C(C)NC)C3)c2)CCC2CCC(C(=O)NC(c3ccccc3)c3ccccc3)N2C1=O"
  units: "%"
  viability, T/C: 102

We now examine a further compound.
Determine reported viability, T/C for O=C(c1ccc(F)c(F)c1Nc1ccc(I)cc1F)N1CC(O)([C@@H]2CCCCN2)C1 + Cc1c(S(C)(=O)=O)c(-c2cc(F)cc(N3CCN(c4ccc(NS(=O)(=O)c5ccc(NC(CCN6CCC(C(=O)OCCCP(=O)(O)O)CC6)CSc6ccccc6)c(S(=O)(=O)C(F)(F)F)c5)cc4)CC3)c2)c(-c2ccc(Cl)cc2)n1C(C)C ; test system: 519858-162-T-J1-PDC complex spheroid growth, % test/control.
115

###

System: 519858-162-T-J1-PDC complex spheroid growth, % test/control
experiment_notes: Anticancer human tumor 519858-162-T-J1-PDC cell line growth inhibition [Asc];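 further: seven day drug exposure begun three days after spheroid seeding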;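 on viability, T/C: 100% = DMSO vehicle wells and lower values mean less viable spheroid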
condition_details: second compound 0.1 µM; first compound 0.00316 µM; stronger effect = lower value
Hi there, I'd appreciate the recorded viability, T/C for every entry that follows.
Answers are plain numbers, in %.

- compound: "COc1c(OCCCN2CCOCC2)ccc2c3n(c(=NC(=O)c4cnc(N)nc4)nc12)CCN3 + CNC(C)C(=O)NC1CN(S(=O)(=O)c2cccc(S(=O)(=O)N3CCC4CCC(C(=O)NC(c5ccccc5)c5ccccc5)N4C(=O)C(NC(=O)C(C)NC)C3)c2)CCC2CCC(C(=O)NC(c3ccccc3)c3ccccc3)N2C1=O"
  units: "%"
  viability, T/C: 86.5

We now examine a further compound.
Quick one: give measured viability, T/C for CCN1CCN(Cc2ccc(Nc3ncc(F)c(-c4cc(F)c5nc(C)n(C(C)C)c5c4)n3)nc2)CC1 + CNC(C)C(=O)NC1CN(S(=O)(=O)c2cccc(S(=O)(=O)N3CCC4CCC(C(=O)NC(c5ccccc5)c5ccccc5)N4C(=O)C(NC(=O)C(C)NC)C3)c2)CCC2CCC(C(=O)NC(c3ccccc3)c3ccccc3)N2C1=O
128

###

Test system: 519858-162-T-J1-PDC complex spheroid growth, % test/control
experiment_notes: Anticancer human tumor 519858-162-T-J1-PDC cell line growth inhibition [Asc];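 further: seven day drug exposure begun three days after spheroid seeding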;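 on viability, T/C: 100% = DMSO vehicle wells and lower values mean less viable spheroid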
condition_details: second compound 0.3 µM; first compound 0.0316 µM; stronger effect = lower value
endpoint_label: viability, T/C (%)
One number for each entry, in %.

Quick one: give me viability, T/C for each item below, same order please.
1. O=C(c1cc(Cc2n[nH]c(=O)c3ccccc23)ccc1F)N1CCN(C(=O)C2CC2)CC1 + CCN1C(C(=O)NC23CCC(C(=O)O)(CC2)CC3)C(c2cccc(Cl)c2F)C2(C(=O)Nc3cc(Cl)ccc32)C12CCCCC2
2. C#Cc1c(F)ccc2cc(O)cc(-c3ncc4c(N5CC6CCC(C5)N6)nc(OCC56CCCN5CC(F)C6)nc4c3F)c12 (centres undefined) + CCN1C(C(=O)NC23CCC(C(=O)O)(CC2)CC3)C(c2cccc(Cl)c2F)C2(C(=O)Nc3cc(Cl)ccc32)C12CCCCC2
3. C=CC(=O)N1CCN(c2nc(=O)n(-c3c(C)ccnc3C(C)C)c3nc(-c4c(O)cccc4F)c(F)cc23)C(C)C1 (centres undefined) + CCN1C(C(=O)NC23CCC(C(=O)O)(CC2)CC3)C(c2cccc(Cl)c2F)C2(C(=O)Nc3cc(Cl)ccc32)C12CCCCC2
4. C=C(F)C(=O)N1CCN(c2nc(OCC3CCCN3C)nc3c2CCN(c2cccc4cccc(Cl)c24)C3)CC1CC#N (centres undefined) + CCN1C(C(=O)NC23CCC(C(=O)O)(CC2)CC3)C(c2cccc(Cl)c2F)C2(C(=O)Nc3cc(Cl)ccc32)C12CCCCC2

1: 163; 2: 59.4; 3: 88.7; 4: 81

###

Tested on: 519858-162-T-J1-PDC complex spheroid growth, % test/control
experiment_notes: Anticancer human tumor 519858-162-T-J1-PDC cell line growth inhibition [Asc];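 further: seven day drug exposure begun three days after spheroid seeding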
condition_details: curve of first compound; second compound 0.3 µM
pIC50: −log10 of the molar value.
Hi there, I'd appreciate the recorded pIC50 for every entry that follows.

- compound: "C=CC(=O)N1CCN(c2nc(=O)n(-c3c(C)ccnc3C(C)C)c3nc(-c4c(O)cccc4F)c(F)cc23)C(C)C1 (stereo not drawn) + CCN1C(C(=O)NC23CCC(C(=O)O)(CC2)CC3)C(c2cccc(Cl)c2F)C2(C(=O)Nc3cc(Cl)ccc32)C12CCCCC2"
  endpoint_label: "pIC50"
  data_value: "< 5.00"

Quick one: give me pIC50 for each item below, same order please.
1. Cc1nc(N2CCC3(CC2)COC(C)C3N)c(CO)nc1Sc1ccnc(N)c1Cl (stereo not drawn) + CCN1C(C(=O)NC23CCC(C(=O)O)(CC2)CC3)C(c2cccc(Cl)c2F)C2(C(=O)Nc3cc(Cl)ccc32)C12CCCCC2
2. NC1CCC(NC2CC2c2ccccc2)CC1 (stereo not drawn) + CCN1C(C(=O)NC23CCC(C(=O)O)(CC2)CC3)C(c2cccc(Cl)c2F)C2(C(=O)Nc3cc(Cl)ccc32)C12CCCCC2

1: < 5.52; 2: < 7.00

###

System: 519858-162-T-J1-PDC complex spheroid growth, % test/control
experiment_notes: Anticancer human tumor 519858-162-T-J1-PDC cell line growth inhibition [Asc];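 further: seven day drug exposure begun three days after spheroid seeding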;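 on viability, T/C: 100% = DMSO vehicle wells and lower values mean less viable spheroid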
condition_details: second compound 0.0316 µM; first compound 0.1 µM; stronger effect = lower value
endpoint_label: viability, T/C (%)
One number for each entry, in %.

- compound: "C=C(F)C(=O)N1CCN(c2nc(OCC3CCCN3C)nc3c2CCN(c2cccc4cccc(Cl)c24)C3)CC1CC#N (stereo not drawn) + Cc1c(S(C)(=O)=O)c(-c2cc(F)cc(N3CCN(c4ccc(NS(=O)(=O)c5ccc(NC(CCN6CCC(C(=O)OCCCP(=O)(O)O)CC6)CSc6ccccc6)c(S(=O)(=O)C(F)(F)F)c5)cc4)CC3)c2)c(-c2ccc(Cl)cc2)n1C(C)C"
  viability, T/C / %: 78.2
- compound: "O=C(c1cc(Cc2n[nH]c(=O)c3ccccc23)ccc1F)N1CCN(C(=O)C2CC2)CC1 + Cc1c(S(C)(=O)=O)c(-c2cc(F)cc(N3CCN(c4ccc(NS(=O)(=O)c5ccc(NC(CCN6CCC(C(=O)OCCCP(=O)(O)O)CC6)CSc6ccccc6)c(S(=O)(=O)C(F)(F)F)c5)cc4)CC3)c2)c(-c2ccc(Cl)cc2)n1C(C)C"
  viability, T/C / %: 92.3

Quick one: give measured viability, T/C for COc1c(OCCCN2CCOCC2)ccc2c3n(c(=NC(=O)c4cnc(N)nc4)nc12)CCN3 + Cc1c(S(C)(=O)=O)c(-c2cc(F)cc(N3CCN(c4ccc(NS(=O)(=O)c5ccc(NC(CCN6CCC(C(=O)OCCCP(=O)(O)O)CC6)CSc6ccccc6)c(S(=O)(=O)C(F)(F)F)c5)cc4)CC3)c2)c(-c2ccc(Cl)cc2)n1C(C)C
95.5
